assay details: Stability in the gut (incubation with homogenized rat stomach or intestine)
Format: in vitro ADME
experimental context: incubated with homogenized rat stomach (pH 1.0) or intestine (pH 7.4); read-out: t1/2 of decomposition in the presence of rat gut
measured attribute: half-life

Per the record, CC(C)C(NC(=O)CN)C(=O)OCC1OC(O)C(N)C(O)C1O (stereo not shown) has half-life of > 16 h
